Documented AC26 across a set of compounds
# System: D54 ERlucT glycosylation luciferase reporter, luminescence, 24 h
# PROTOCOL: N-linked glycosylation inhibitors, luciferase reporter, dose response, D54 ERlucT cells, luminescence, cherry-picks (AID 624491);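 further: signal gain reflects blocked N-linked glycosylation of a luciferase reporter; actives raise luciferase signal so AC26 marks activators of the reporter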

{"columns": ["COMPOUND", "AC26"],
 "data": [
  ["Cc1ccc(CCC(=O)Nc2ncc(Cc3cc(Cl)ccc3Cl)s2)o1", "476 nM"],
  ["CSc1cccc(NC(=O)CCCOc2cc(=O)n(C)c3ccccc23)c1", "4940 nM"],
  ["Cc1cc(C)nc(/N=C(\\N)Nc2ccc(OCc3ccccc3)cc2)n1", "8.88 nM"],
  ["O=C(N/N=C/c1c(-c2ccccc2)[nH]c2ccccc12)c1cccnc1", "117 nM"],
  ["CCN(CC)CCn1c2ccccc2c2nc3ccc([N+](=O)[O-])cc3cc21", "7740 nM"],
  ["Cc1cc(NC(=O)CSc2nc(-c3ccco3)cc(C(F)(F)F)n2)no1", "565 nM"],
  ["O=C(/C(=C\\c1ccccc1)c1nc2ccccc2[nH]1)c1ccc(Cl)cc1", "1000 nM"],
  ["Cn1c(=O)cc2c3c(c(N4CCCCC4)ccc31)C(=O)c1ccccc1-2", "4360 nM"],
  ["Cc1cccc2c1NC(=O)/C2=C\\C(=O)c1cccs1", "4260 nM"],
  ["COc1ccc(OC)c(Nc2ncnc3c2cnn3-c2cccc(C)c2)c1", "3240 nM"]
]}

Switching to the query record.
Q. Identify AC26 associated with the compound CC(=O)Nc1cccc(-c2ccnc3c2CC(C)(C(=O)NCCc2ccccc2)O3)c1 (stereo unspecified)
A. 1370 nM

----------
# Test system: D54 ERlucT glycosylation luciferase reporter, luminescence, 24 h
# PROTOCOL: N-linked glycosylation inhibitors, luciferase reporter, dose response, D54 ERlucT cells, luminescence, cherry-picks (AID 624491);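 further: signal gain reflects blocked N-linked glycosylation of a luciferase reporter; actives raise luciferase signal so AC26 marks activators of the reporter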
TEST_READOUT: AC26

{"columns": ["MOLECULE", "AC26"],
 "data": [
  ["Cc1ccc(C(=O)c2cc([N+](=O)[O-])ccc2N2CCOCC2)cc1C", "0.168 µM"],
  ["c1ccc(-c2n[nH]c(-c3ccccc3)c2-c2nc3ccccc3[nH]2)cc1", "4.36 µM"],
  ["Cc1cccc2c(C(=O)N3CCN(c4ccccc4)CC3)cc(-c3ccncc3)nc12", "0.198 µM"]
]}

Q. Report AC26 from D54 ERlucT glycosylation luciferase reporter, luminescence, 24 h testing of "Cc1cc(=O)oc2cc(NC(=O)c3cccc(S(C)(=O)=O)c3)ccc12"
A. 2.31 µM

----------
# Tested on: D54 ERlucT glycosylation luciferase reporter, luminescence, 24 h
# PROTOCOL: N-linked glycosylation inhibitors, luciferase reporter, dose response, D54 ERlucT cells, luminescence, cherry-picks (AID 624491);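 further: signal gain reflects blocked N-linked glycosylation of a luciferase reporter; actives raise luciferase signal so AC26 marks activators of the reporter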
TEST_READOUT: AC26

Worked set:
{"columns": ["MOLECULE", "ASSAYED_SYSTEM", "AC26"],
 "data": [
  ["COc1ccc2c(c1)[C@H]1[C@H](CO2)[C@H](c2ccccc2)[C@]2(C)C(=O)Nc3ccc(Cl)cc3C(=O)N12", "D54 ERlucT glycosylation luciferase reporter, luminescence, 24 h", "426 nM"],
  ["CN(C)CCOc1nc(-c2ccccc2)nc2c1oc1ccccc12", "D54 ERlucT glycosylation luciferase reporter, luminescence, 24 h", "2700 nM"],
  ["O=C(O)c1ccc(N/N=C/c2ccc(-c3ccc(Cl)cc3Cl)o2)cc1", "D54 ERlucT glycosylation luciferase reporter, luminescence, 24 h", "5330 nM"],
  ["CCc1cc2c(=O)n(Cc3ccco3)c(SCc3c(C)noc3C)nc2s1", "D54 ERlucT glycosylation luciferase reporter, luminescence, 24 h", "249 nM"],
  ["CC(CCc1ccccc1)NC(=O)c1ccc(NC(=O)c2ccccc2)cc1 (stereo not given)", "D54 ERlucT glycosylation luciferase reporter, luminescence, 24 h", "4540 nM"]
]}

Q. Identify AC26 associated with the molecule "CC(=O)n1cc(/C=N/NC(=O)c2sc(C)nc2C)c2ccccc21"
A. 10000 nM

Q. Identify AC26 associated with the molecule "O=C(COC(=O)c1cccc(Br)c1)Nc1cccc2c1C(=O)c1ccccc1C2=O"
A. 4290 nM

Q. Identify AC26 associated with the molecule "Cn1cnc([N+](=O)[O-])c1Sc1nc2ccccc2[nH]1"
A. 797 nM

Q. Identify AC26 associated with the molecule COc1cc(C2C(C#N)=C(N)Oc3cc(O)ccc32)cc(OC)c1OC (stereo not given)
A. 1020 nM

Q. Identify AC26 associated with the molecule "CCOC(=O)Cc1csc(/N=C/c2c(O)n(-c3ccc(C)c(C)c3)c(=O)c3ccccc23)n1"
A. 2580 nM
